target: PI3Kα (p110α/p85α) (Homo sapiens, UniProt P42336); construct: GST (N); test: PI3Kα ADP-Glo assay; details: 20 μM PIP2, 10 μM ATP, 30 minutes
Sequence (P42336 whole entry): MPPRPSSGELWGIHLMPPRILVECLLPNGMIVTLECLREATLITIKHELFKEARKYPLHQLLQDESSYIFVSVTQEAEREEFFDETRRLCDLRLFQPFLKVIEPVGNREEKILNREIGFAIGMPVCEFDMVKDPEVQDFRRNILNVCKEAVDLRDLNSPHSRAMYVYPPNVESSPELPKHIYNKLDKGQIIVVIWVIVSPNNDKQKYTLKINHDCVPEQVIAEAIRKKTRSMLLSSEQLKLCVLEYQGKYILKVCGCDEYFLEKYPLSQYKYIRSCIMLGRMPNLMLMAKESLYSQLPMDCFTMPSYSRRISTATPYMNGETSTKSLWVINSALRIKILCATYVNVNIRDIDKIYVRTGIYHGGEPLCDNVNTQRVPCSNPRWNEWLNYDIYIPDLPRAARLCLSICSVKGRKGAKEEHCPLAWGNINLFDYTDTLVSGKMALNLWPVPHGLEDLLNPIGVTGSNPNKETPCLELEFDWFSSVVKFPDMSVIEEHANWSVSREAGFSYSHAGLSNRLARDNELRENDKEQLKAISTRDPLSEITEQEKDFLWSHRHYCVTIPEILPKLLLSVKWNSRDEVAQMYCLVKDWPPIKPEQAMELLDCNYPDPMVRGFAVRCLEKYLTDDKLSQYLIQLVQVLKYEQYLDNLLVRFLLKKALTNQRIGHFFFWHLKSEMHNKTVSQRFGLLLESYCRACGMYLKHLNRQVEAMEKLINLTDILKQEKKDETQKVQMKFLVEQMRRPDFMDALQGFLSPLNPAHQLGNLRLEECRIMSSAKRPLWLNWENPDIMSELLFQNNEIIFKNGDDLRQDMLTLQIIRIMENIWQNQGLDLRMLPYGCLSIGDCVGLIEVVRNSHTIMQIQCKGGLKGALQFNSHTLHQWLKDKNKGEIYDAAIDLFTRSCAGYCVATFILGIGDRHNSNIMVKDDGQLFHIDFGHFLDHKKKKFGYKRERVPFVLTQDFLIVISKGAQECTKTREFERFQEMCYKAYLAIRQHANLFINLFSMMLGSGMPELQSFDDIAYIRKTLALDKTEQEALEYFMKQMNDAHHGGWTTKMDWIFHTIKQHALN
Sequence (P27986 whole entry partner): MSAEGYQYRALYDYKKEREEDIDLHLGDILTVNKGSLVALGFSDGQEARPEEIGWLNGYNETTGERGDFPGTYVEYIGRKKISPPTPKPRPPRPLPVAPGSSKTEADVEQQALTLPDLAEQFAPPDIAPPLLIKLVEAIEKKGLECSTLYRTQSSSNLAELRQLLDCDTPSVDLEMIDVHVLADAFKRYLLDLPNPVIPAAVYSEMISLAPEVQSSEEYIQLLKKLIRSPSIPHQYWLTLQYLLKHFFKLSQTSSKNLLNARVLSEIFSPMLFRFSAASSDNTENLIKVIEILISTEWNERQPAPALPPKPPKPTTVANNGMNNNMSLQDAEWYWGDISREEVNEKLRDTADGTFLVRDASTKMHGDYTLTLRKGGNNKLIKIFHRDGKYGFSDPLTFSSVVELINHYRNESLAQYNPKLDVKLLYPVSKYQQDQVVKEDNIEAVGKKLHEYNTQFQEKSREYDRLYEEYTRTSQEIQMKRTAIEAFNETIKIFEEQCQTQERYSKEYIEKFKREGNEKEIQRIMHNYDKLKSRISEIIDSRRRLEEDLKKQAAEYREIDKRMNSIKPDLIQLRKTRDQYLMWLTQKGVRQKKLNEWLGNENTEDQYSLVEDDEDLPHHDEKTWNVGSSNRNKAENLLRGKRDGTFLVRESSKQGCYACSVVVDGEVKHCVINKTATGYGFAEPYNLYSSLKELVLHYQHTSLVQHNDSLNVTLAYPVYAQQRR
pIC50: −log10 of the molar value.
measurement-label: pIC50

// worked examples, pIC50 included
| molecule | readout-value |
| --- | --- |
| COc1ncc(-c2nc(N3CCOCC3)c3sc(C(C)(C)N(C)c4ncc(C(=O)NO)cn4)cc3n2)cn1 | 6.00 to 7.00 |
| CN(Cc1cc2nc(-c3ccc4[nH]cnc4c3)nc(N3CCOCC3)c2s1)c1ncc(C(=O)NO)cn1 | > 7.00 |

Here is the next item to consider.
Problem: Give the measured pIC50 of CC(O)c1ccc(F)c(-c2nc(N3CCOCC3)c3sc(CN(C)c4ncc(C(=O)NO)cn4)cc3n2)c1 (stereo not drawn) .
Solution: 6.00 to 7.00

* * *

Test system: HDACs (HeLa cell nuclear extracts)
Experiment: HDAC enzymatic activity, Biomol Color de Lys system
Assay type: biochemical
Conditions: 1 hour, 25° C.
Method: (E) an In Vitro Assay which Determines the Ability of a Test Compound to Inhibit HDAC Enzymatic Activity. HDAC inhibitory activity was assessed using the Biomol Color de Lys system (AK-500, Biomol, Plymouth Meeting, Pa.). […] Relative enzyme activity was measured in the WALLAC Victor II 1420 microplate reader as fluorescence intensity (excitation: 350-380 nm; emission: 440-460 nm). Data were analyzed using GraphPad Prism (v4.0a) with a sigmoidal dose response curve fitting for IC50 calculation.
Reported IC50 is given for each of the following molecules.

| structure-string | assayed-target | measurement-label | readout-value |
| --- | --- | --- | --- |
| O=C(NO)c1cnc(NCc2cc3cc(-c4cccc5[nH]ncc45)nc(N4CCOCC4)c3s2)nc1 | HDACs (HeLa cell nuclear extracts) | IC50 | < 100 nM |

// switching to the query molecule
Problem: // query IC50 value for entry CN(C)c1ccc(-c2nc(N3CCOCC3)c3sc(CN(C)c4ncc(C(=O)NO)cn4)cc3n2)cn1
Solution: < 100 nM

* * *

measurement-label: melting point

Problem: Return reported melting point; argument: CN(Cc1cc2nc(-c3cccc4[nH]ncc34)nc(N3CCOCC3)c2s1)c1ncc(C(=O)NO)cn1 [Compound 54]
Solution: 197 to 200 °C

Problem: Report melting point for C[C@@H](O)c1cccc(-c2nc(N3CCOCC3)c3sc(CN(C)c4ncc(C(=O)NO)cn4)cc3n2)c1 [Compound 297] please.
Solution: 169 to 173 °C

* * *

Biological target: PI3Kα (p110α/p85α) (Homo sapiens)
Construct: GST (N)
Assay: PI3Kα ADP-Glo assay
Conditions: 20 μM PIP2, 10 μM ATP, 30 minutes
Description: (A) an In Vitro Assay which Determines the Ability of a Test Compound to Inhibit PI3Kα. Activity of PI3Kα was measured using ADP-Glo assay from Promega. […] The ADP generated was then detected by ADP-Glo assay from Promega, a luminescent ADP detection assay. […] Second, the Kinase Detection Reagent is added to simultaneously convert ADP to ATP and allow the newly synthesized ATP to be measured using a luciferase/luciferin reaction.
pIC50: −log10 of the molar value.
measurement-label: pIC50

# annotated cases, reported pIC50 shown
| structure-string | pIC50 |
| --- | --- |
| CN(Cc1cc2nc(-c3cccc(S(=O)(=O)CCO)c3)nc(N3CCOCC3)c2s1)c1ncc(C(=O)NO)cn1 | < 5.00 |
| CCN(Cc1cc2nc(-c3ccc(N)cc3)nc(N3CCOCC3)c2s1)c1ncc(C(=O)NO)cn1 | 6.00 to 7.00 |
| CNc1ccc(-c2nc(N3CCOCC3)c3sc(NCCCCC(=O)NO)cc3n2)cn1 | > 7.00 |
| COc1ncc(-c2nc(N3CCOCC3)c3sc(C(C)(C)Nc4ncc(C(=O)NO)cn4)cc3n2)cn1 | > 7.00 |
| CN(Cc1cc2nc(-c3cccc4[nH]c(=O)sc34)nc(N3CCOCC3)c2s1)c1ncc(C(=O)NO)cn1 | > 7.00 |
| CN(Cc1cc2nc(-c3cc(F)cc4[nH]ncc34)nc(N3CCOCC3)c2s1)c1ncc(C(=O)NO)cn1 | > 7.00 |

Next compound, pIC50 to be filled in.
Problem: State the recorded pIC50 for this entry: COc1ccc(-c2nc(N3CCOCC3)c3sc(C(C)(C)Nc4ncc(C(=O)NO)cn4)cc3n2)cn1
Solution: > 7.00

* * *

test system: HDACs (HeLa cell nuclear extracts); experiment: HDAC enzymatic activity, Biomol Color de Lys system; assay type: biochemical; details: 1 hour, 25° C.
pIC50: −log10 of the molar value.
measurement-label: pIC50

Worked examples, 5 molecules total:
| molecule | readout-value |
| --- | --- |
| CS(=O)(=O)N1CCN(Cc2cc3nc(-c4ccc(OCCCCCC(=O)NO)cc4)nc(N4CCOCC4)c3s2)CC1 [Compound 320] | 6.00 to 7.00 |
| O=C(/C=C/c1ccc(NCc2cc3nc(-c4cccc5[nH]ncc45)nc(N4CCOCC4)c3s2)cc1)NO [Compound 80] | 6.00 to 7.00 |
| CN(Cc1cc2nc(-c3c[nH]c4ccccc34)nc(N3CCOCC3)c2s1)c1ncc(C(=O)NO)cn1 [Compound 184] | > 7.00 |
| CN(Cc1cc2nc(-c3ccc(N)cc3F)nc(N3CCOCC3)c2s1)c1ncc(C(=O)NO)cn1 [Compound 283] | > 7.00 |
| Nc1ccc(-c2nc(N3CCOCC3)c3sc(S(=O)(=O)NCC4CCN(c5ncc(C(=O)NO)cn5)CC4)cc3n2)cc1 [Compound 309] | 6.00 to 7.00 |

Problem: Reported pIC50 for HDACs (HeLa cell nuclear extracts), given CS(=O)(=O)N1CCN(Cc2cc3nc(-c4cccc5[nH]ncc45)nc(N4CCN(CCCCCCC(=O)NO)CC4)c3s2)CC1 [Compound 32] ?
Solution: 6.00 to 7.00

Problem: Under HDACs (HeLa cell nuclear extracts): pIC50 value of Cc1ncc(-c2nc(N3CCOCC3)c3sc(CN(C)c4ncc(C(=O)NO)cn4)cc3n2)cn1 [Compound 120] ?
Solution: > 7.00

Problem: Provide the documented pIC50 with HDACs (HeLa cell nuclear extracts) as the system for CN(Cc1cc2nc(-c3cccc4[nH]c(=O)sc34)nc(N3CCOCC3)c2s1)c1ncc(C(=O)NO)cn1 [Compound 317]
Solution: > 7.00

Problem: Under HDACs (HeLa cell nuclear extracts): pIC50 value of CN(Cc1cc2nc(-c3cccc(C(=O)OC(C)(C)C)c3)nc(N3CCOCC3)c2s1)c1ncc(C(=O)NO)cn1 [Compound 304] ?
Solution: > 7.00

Problem: Notebook entry, HDACs (HeLa cell nuclear extracts) assay: pIC50 of CNc1ncc(-c2nc(N3CCOCC3)c3sc(NCCCCC(=O)NO)cc3n2)cn1 [Compound 227] = ?
Solution: > 7.00

Problem: Form field - read-out: pIC50; system: HDACs (HeLa cell nuclear extracts); submitted item: CN(Cc1cc2nc(-c3ccc4c(c3)OCCN4)nc(N3CCOCC3)c2s1)c1ncc(C(=O)NO)cn1 [Compound 191]
Solution: > 7.00

Problem: Any idea what pIC50 came out for CS(=O)(=O)N1CCN(Cc2cc3nc(-c4ccc(OCCCCCCC(=O)NO)cc4)nc(N4CCOCC4)c3s2)CC1 [Compound 321] on HDACs (HeLa cell nuclear extracts)?
Solution: 6.00 to 7.00

Problem: So what pIC50 did CCCc1nc2cc(/C=C/C(=O)NO)ccc2n1CCN(C)Cc1cc2nc(-c3ccc(NC)nc3)nc(N3CCOCC3)c2s1 [Compound 322] get with HDACs (HeLa cell nuclear extracts)?
Solution: 6.00 to 7.00

* * *

measurement-label: melting point

The following molecules have reported results that may help.
| structure-string | readout-value |
| --- | --- |
| CCCCN(Cc1cc2nc(-c3cccc4[nH]ncc34)nc(N3CCOCC3)c2s1)c1ncc(C(=O)NO)cn1 | 234 to 236 °C |
| CNc1ccc(-c2nc(N3CCOCC3)c3sc(C(C)(C)Nc4ncc(C(=O)NO)cn4)cc3n2)cn1 | 200 to 205 °C |

Problem: Could you share which melting point value was measured for CN(Cc1cc2nc(-c3cn[nH]c3)nc(N3CCOCC3)c2s1)c1ncc(C(=O)NO)cn1 ?
Solution: 214 to 217 °C

Problem: GET /values?readout=melting point&item= CN(Cc1cc2nc(-c3cccc4[nH]ncc34)nc(N3CCOCC3)c2s1)CC1CCN(c2ncc(C(=O)NO)cn2)CC1
Solution: 174 to 175 °C

Problem: # get_value(readout='melting point', item= COc1ccc(-c2nc(N3CCOCC3)c3sc(NS(=O)(=O)c4cccc(/C=C/C(=O)NO)c4)cc3n2)cn1 )
Solution: > 300 °C

Problem: Requested field: melting point. Item: CN(CCCCCC(=O)NO)Cc1cc2nc(-c3cccc4[nH]ncc34)nc(N3CCOCC3)c2s1
Solution: 115 to 118 °C

Problem: May I ask what melting point has been recorded for CN(Cc1cc2nc(-c3ccc(N)nc3)nc(N3CCOCC3)c2s1)c1ncc(C(=O)NO)cn1 ?
Solution: 175 to 181 °C

Problem: Please look up its melting point: COc1cccc(-c2nc(N3CCOCC3)c3sc(CN(C)c4ncc(C(=O)NO)cn4)cc3n2)c1
Solution: 179 to 181 °C

Problem: Which melting point is reported for this molecule? CN(Cc1cc2nc(-c3ccc(OCCO)nc3)nc(N3CCOCC3)c2s1)c1ncc(C(=O)NO)cn1
Solution: 143 to 145 °C

Problem: Consider the molecule shown here: CNCCOc1ccc(-c2nc(N3CCOCC3)c3sc(CN(C)c4ncc(C(=O)NO)cn4)cc3n2)cn1 What is its recorded melting point?
Solution: 170 to 175 °C
